target: protein A (UniProt P38507 37-327); test: Octet HTX (ForteBio), HCAb on AHC sensor, 1:1 fit
quantityName: koff (s⁻¹)
Only the number, expressed in s⁻¹, is required.

Problem: State, in one line, measured koff of CNG-HSA-110 (VHH) VHH: KVQLVESGGGLVQPGNSLRLSCAASGFTFSSFGMSWVRQAPGKGLEWVSSISGSGGDTLYADSAKGRFTISRDNSKNTLYLQMNSLRPEDTAVYYCTIGGSLSRSSQGTLVTVSS
Solution: 0.000378

Problem: State, in one line, measured koff of CNG-HSA-113 (VHH) VHH: GVQLLESGGGLVQPGGSLRLSCAASGFTFSSFGMSWVRQAPGKGLEWVSSISGTGSDTLYADSVKGRFTISRDNSKNTLYLQMNSLRPEDTAVYYCTIGGSLRYSSQGTLVTVSS
Solution: 0.0002

Problem: State, in one line, measured koff of CNG-HSA-116 (VHH) VHH: KVQLVESGGGLVQPGGSLRLSCAASGFTFSSFGMSWVRQAPGKGPEWVSSISGSGSDTLYADSVKGRFTISRDNSKNTLYLQMNSLRAEDTAVYYCTIGGSLRASSQGTLVTVSS
Solution: 0.0002

Problem: State, in one line, measured koff of CNG-HSA-108 (VHH) VHH: KVQLVESGGGLVQPGGSLRLSCAASGFTFGSFGMSWVRQAPGKGLEWVSSISGSGADTLYADSVKGRFTISRDNSKNTLYLQMNSLRAEDTAVYYCTIGGSLRASSQGTLVTVSS
Solution: 0.000294

Problem: State, in one line, measured koff of CNG-HSA-111 (VHH) VHH: KVQLVESGGGLVQPGGSLRLSCAASGFTFSSFGMSWVRQAPGKGLEWVSSISGSGSDTLYADSVEGRFTISRDNSKNTLYLQMNSLRAEDTAVYYCTIGGSLKQSSQGTLVTVSS
Solution: 0.0002

Problem: State, in one line, measured koff of CNG-HSA-103 (VHH) VHH: KVQLVESGGGLVQPGGSLRLSCAASGFTFSSFGMTWVRQAPGKGLEWVSSISGSGSDTLYADSVRGRFTISRDNSKNTLYLQMNSLRPEDTAVYYCTIGGSLSPSSQGTLVTVSS
Solution: 0.000221

Problem: State, in one line, measured koff of CNG-HSA-101 (VHH) VHH: KVQLVESGGGLVQPGGSLRLSCAASGFTFSSFGMTWVRQAPGKGLEWVSSISGSGSDTLYADSVRGRFTISRDNSKNTLYLQMNSLRAEDTAVYYCTIGGSLSPSSQGTLVTVSS
Solution: 0.0002

Problem: State, in one line, measured koff of CNG-HSA-109 (VHH) VHH: KVQLVESGGGLVQPGNSLRLSCAASGFTFGSFGMSWVRQAPGKGPEWVSSISGSGSDTLYADSVKGRFTISRDNSKNTLYLQMNSLRPEDTAVYYCTIGGSLSRSSQGTLVTVSS
Solution: 0.0002

The reported measurements were obtained from patent US20230037815A1.
